Each entry below lists one item and its recorded E 1/2 value.
Experiment: E1/2 for the half-wave potential at pH=7.0 in V57
Format: ADME
measured.metric: E 1/2

molecule: O=C1C(Cl)=C(N2CC2)C(=O)C(Cl)=C1N1CC1
measured.metric: E 1/2
value.measured: -0.133

molecule: CCC1=C(N2CC2)C(=O)C(C)=C(N2CC2)C1=O
measured.metric: E 1/2
value.measured: -0.227

molecule: COC1=C(C)C(=O)C(N2CCCC2)=CC1=O
measured.metric: E 1/2
value.measured: -0.315

molecule: O=C1C(N2CC2)=C(N2CC2)C(=O)C(N2CC2)=C1N1CC1
measured.metric: E 1/2
value.measured: -0.245

molecule: CC1CN1C1=C(Cl)C(=O)C(N2CC2C)=C(Cl)C1=O (stereo unspecified)
measured.metric: E 1/2
value.measured: -0.125

molecule: CCOC(=O)NC1=C(N2CC2)C(=O)C(NC(=O)OCC)=C(N2CC2)C1=O [DIAZIQUONE]
measured.metric: E 1/2
value.measured: -0.149

molecule: CC1=C(N2CC2C)C(=O)C(Br)=C(N2CC2C)C1=O (stereo unspecified)
measured.metric: E 1/2
value.measured: -0.194

molecule: O=C1C(F)=C(N2CC2)C(=O)C(N2CC2)=C1N1CC1
measured.metric: E 1/2
value.measured: -0.171

molecule: CC1=C(N2CC2)C(=O)C(Br)=C(N2CC2)C1=O
measured.metric: E 1/2
value.measured: -0.185

molecule: CC1CN1C1=C(F)C(=O)C(N2CC2C)=C(N2CC2C)C1=O (stereo unspecified)
measured.metric: E 1/2
value.measured: -0.195

molecule: COC(COC(N)=O)C1=C(N2CC2)C(=O)C(C)=C(N2CC2)C1=O (stereo unspecified) [CARBOQUONE]
measured.metric: E 1/2
value.measured: -0.182
